# TARGET_OF_ASSAY: Rat NHE3 (Rattus norvegicus)
# Construct: expressed in transfected cells; host or cells: Opossum kidney (OK) cells (ATCC), electroporation
# TEST_SUMMARY: Cell-based NHE3 activity under prompt conditions (OK cells, BCECF pH recovery), rat NHE3
# EXPERIMENTAL_PARAMETERS: prompt conditions
MEASUREMENT_KIND: Prompt Rat NHE3 pIC50

SMILES_STRING	TARGET_OF_ASSAY	RESULT
CN1Cc2c(Cl)cc(Cl)cc2[C@H](c2cccc(S(=O)(=O)NCCOCCOCCNC(=O)CCC(CCC(=O)NCCOCCOCCNS(=O)(=O)c3cccc([C@@H]4CN(C)Cc5c(Cl)cc(Cl)cc54)c3)(CCC(=O)NCCOCCOCCNS(=O)(=O)c3cccc([C@@H]4CN(C)Cc5c(Cl)cc(Cl)cc54)c3)NC(=O)N[C@@H](CO)C(=O)O)c2)C1	Rat NHE3 (Rattus norvegicus)	7.90
CN1Cc2c(Cl)cc(Cl)cc2[C@H](c2cccc(S(=O)(=O)NCCOCCOCCNC(=O)CCC(CCC(=O)NCCOCCOCCNS(=O)(=O)c3cccc([C@@H]4CN(C)Cc5c(Cl)cc(Cl)cc54)c3)(CCC(=O)NCCOCCOCCNS(=O)(=O)c3cccc([C@@H]4CN(C)Cc5c(Cl)cc(Cl)cc54)c3)NS(C)(=O)=O)c2)C1	Rat NHE3 (Rattus norvegicus)	6.20
N=C(N)Nc1nc(-c2cccc(OCCOCCOCCOCCNC(=O)NCCOCCOCCNC(=O)CN(CCN(CC(=O)O)CC(=O)NCCOCCOCCNC(=O)NCCOCCOCCOCCOc3cccc(-c4nc(NC(=N)N)nc5ccc(Cl)cc45)c3)CC(=O)O)c2)c2cc(Cl)ccc2n1	Rat NHE3 (Rattus norvegicus)	7.70

====

# TARGET_OF_ASSAY: Rat NHE3 (Rattus norvegicus, UniProt P26433)
# Construct: expressed in transfected cells; host or cells: Opossum kidney (OK) cells (ATCC), electroporation
# Sequence (P26433 29-831): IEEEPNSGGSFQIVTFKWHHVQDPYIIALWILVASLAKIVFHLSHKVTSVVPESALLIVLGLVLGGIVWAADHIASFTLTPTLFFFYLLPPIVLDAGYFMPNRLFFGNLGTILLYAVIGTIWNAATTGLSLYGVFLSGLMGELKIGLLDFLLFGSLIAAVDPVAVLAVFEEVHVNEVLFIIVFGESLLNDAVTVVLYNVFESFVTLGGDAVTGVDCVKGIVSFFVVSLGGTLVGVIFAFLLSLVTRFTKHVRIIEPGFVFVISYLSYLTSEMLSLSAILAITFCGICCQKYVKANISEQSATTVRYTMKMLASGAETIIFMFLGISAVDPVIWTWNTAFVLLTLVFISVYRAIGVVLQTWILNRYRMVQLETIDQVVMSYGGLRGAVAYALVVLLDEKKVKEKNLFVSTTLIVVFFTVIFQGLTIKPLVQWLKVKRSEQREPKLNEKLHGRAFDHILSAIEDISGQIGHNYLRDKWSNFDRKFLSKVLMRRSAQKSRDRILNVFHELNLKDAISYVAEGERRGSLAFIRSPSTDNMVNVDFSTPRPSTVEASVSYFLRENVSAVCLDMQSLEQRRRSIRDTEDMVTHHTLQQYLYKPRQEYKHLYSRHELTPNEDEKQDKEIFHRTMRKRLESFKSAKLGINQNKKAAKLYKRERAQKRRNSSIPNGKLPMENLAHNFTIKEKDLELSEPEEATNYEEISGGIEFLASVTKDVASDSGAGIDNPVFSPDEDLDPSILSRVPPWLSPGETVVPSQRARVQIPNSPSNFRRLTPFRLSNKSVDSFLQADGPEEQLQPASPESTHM
# TEST_SUMMARY: Cell-based NHE3 activity under prompt conditions (OK cells, BCECF pH recovery), rat NHE3
# EXPERIMENTAL_PARAMETERS: prompt conditions
MEASUREMENT_KIND: Prompt Rat NHE3 pIC50

SMILES_STRING	QUANTITATIVE_RESULT
N=C(N)Nc1nc(-c2cccc(N3CCN(CCOCCOCCOCCNC(=O)CCOCCOCCOCCOCCOCCC(=O)NCCOCCOCCOCCN4CCN(c5cccc(-c6nc(NC(=N)N)nc7ccc(Cl)cc67)c5)CC4)CC3)c2)c2cc(Cl)ccc2n1	6.87
C/C(=C\c1cc(F)c(Oc2ccc(S(=O)(=O)NCCOCCOCCOCCNC(=O)CN(C)CC(=O)NCCOCCOCCOCCNS(=O)(=O)c3ccc(Oc4c(F)cc(/C=C(\C)C(=O)N=C(N)N)cc4F)cc3)cc2)c(F)c1)C(=O)N=C(N)N	6.50
N=C(N)Nc1nc(-c2cccc(S(=O)(=O)NCCOCCOCCN)c2)c2cc(Cl)ccc2n1	6.30

====

# TARGET_OF_ASSAY: Human NHE3 (Homo sapiens, UniProt P48764)
# Construct: expressed in transfected cells; host or cells: Opossum kidney (OK) cells (ATCC), electroporation
# Sequence (P48764 26-834): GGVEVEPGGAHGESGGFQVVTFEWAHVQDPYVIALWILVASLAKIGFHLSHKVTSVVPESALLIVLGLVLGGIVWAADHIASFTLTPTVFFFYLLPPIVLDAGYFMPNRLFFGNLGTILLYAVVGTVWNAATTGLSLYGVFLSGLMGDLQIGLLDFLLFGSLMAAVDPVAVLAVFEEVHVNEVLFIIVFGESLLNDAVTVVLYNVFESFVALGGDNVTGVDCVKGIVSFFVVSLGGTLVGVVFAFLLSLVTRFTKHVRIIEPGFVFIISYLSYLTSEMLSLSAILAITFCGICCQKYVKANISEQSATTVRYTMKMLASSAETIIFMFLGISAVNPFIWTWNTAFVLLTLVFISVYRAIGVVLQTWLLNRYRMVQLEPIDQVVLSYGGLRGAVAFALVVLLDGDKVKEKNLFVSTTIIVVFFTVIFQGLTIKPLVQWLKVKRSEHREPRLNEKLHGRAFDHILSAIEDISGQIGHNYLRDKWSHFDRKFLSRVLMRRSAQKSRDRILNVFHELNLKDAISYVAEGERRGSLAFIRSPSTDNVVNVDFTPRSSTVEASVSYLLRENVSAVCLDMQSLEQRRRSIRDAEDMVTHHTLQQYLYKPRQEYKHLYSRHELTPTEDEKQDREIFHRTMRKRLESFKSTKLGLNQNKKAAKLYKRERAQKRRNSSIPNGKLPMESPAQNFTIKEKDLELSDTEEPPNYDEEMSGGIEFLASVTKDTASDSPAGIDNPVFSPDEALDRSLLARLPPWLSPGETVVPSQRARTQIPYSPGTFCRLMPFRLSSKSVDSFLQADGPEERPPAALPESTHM
# TEST_SUMMARY: Cell-based NHE3 activity under prompt conditions (OK cells, BCECF pH recovery), human NHE3
# EXPERIMENTAL_PARAMETERS: prompt conditions

SMILES_STRING	Prompt Human NHE3 pIC50
CN1Cc2c(Cl)cc(Cl)cc2[C@H](c2cccc(S(=O)(=O)NCCOCCOCCNC(=O)CCC(CCC(=O)NCCOCCOCCNS(=O)(=O)c3cccc([C@@H]4CN(C)Cc5c(Cl)cc(Cl)cc54)c3)(CCC(=O)NCCOCCOCCNS(=O)(=O)c3cccc([C@@H]4CN(C)Cc5c(Cl)cc(Cl)cc54)c3)NC(=O)NCCS(=O)(=O)O)c2)C1	7.77
CN1Cc2c(Cl)cc(Cl)cc2[C@H](c2cccc(S(=O)(=O)NCCOCCOCCNC(=O)CCC(N)(CCC(=O)NCCOCCOCCNS(=O)(=O)c3cccc([C@@H]4CN(C)Cc5c(Cl)cc(Cl)cc54)c3)CCC(=O)NCCOCCOCCNS(=O)(=O)c3cccc([C@@H]4CN(C)Cc5c(Cl)cc(Cl)cc54)c3)c2)C1	7.93
